B1: TPD52L1 (parent)
chain: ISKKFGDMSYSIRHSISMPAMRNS

Variants of: B1
assay.protocol: protein stability index of a GFP-peptide fusion (GPS, HEK-293T) (PSI 1-6); higher = more stable;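 also: lentivirally expressed fusions sorted by FACS into six bins by GFP to DsRed ratio, PSI derived from sequencing read proportions per bin multiplied by bin number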
test.parameters: c terminus: a fixed tail appended
Listed here: items and their measured protein stability index.
quantity: protein stability index

>>> result("M8N")
2.88
>>> result("H14D")
3.35
>>> result("N23S")
2.26
>>> result("I12V")
2.28
>>> result("I16M")
2.9
>>> result("G6F")
1.97
>>> result("D7T")
1.54
>>> result("S15P")
2.43
>>> result("S17R")
2.17
>>> result("M8P")
3.46
>>> result("R22D")
2.52
>>> result("M8L")
2.27
>>> result("G6E")
2.31
>>> result("I12T")
2.83
>>> result("S15E")
3.28
>>> result("R13F")
2.01
>>> result("S9M")
1.51
>>> result("M18C")
2.21
>>> result("S9A")
2.23
>>> result("S11P")
2.58
>>> result("R13H")
2.37
>>> result("M21E")
3.36
